tested on: FGFR3; conditions: Compound Concentration (nM):1000;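 further: KINOMEscan scanMAX binding as percent activity remaining versus control; lower means stronger binding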
Rule: Percent Control below 90% gives true (1), anything at or above gives false (0).

These recorded examples may help you get a feel for the data.
{"columns": ["compound", "answer_label"],
 "data": [
  ["Cl.O=S1CCN(Cc2ccc(-c3ccc4ncnc(Nc5ccc(OCc6ccccc6)c(F)c5)c4c3)o2)CC1 [GW576924A]", "false (0)"],
  ["CCc1ccc(Oc2nccc(-c3c(-c4ccc(F)cc4)ncn3C3CCNCC3)n2)cc1", "false (0)"],
  ["Nc1ncnc2occ(-c3ccc(NC(=O)Nc4cc(C(F)(F)F)ccc4F)cc3)c12 [GW770249X]", "true (1)"],
  ["COc1cccc(-n2ncc3c(N/N=C/c4ccncc4)ncnc32)c1 [GW784752X]", "false (0)"],
  ["C[C@@H](Oc1cc(-n2cnc3ccc(OC4CCN(C)CC4)cc32)sc1C(N)=O)c1ccccc1Cl [GSK579289A]", "true (1)"]
]}

**Query** Quick check: does COc1ccc2cc(-c3c(-c4ccncc4)nc(-c4ccc(S(C)(=O)=O)cc4C)n3C)ccc2c1 have Percent Control under 90%?
**Result** true (1)

**Query** Quick check: does O=C1Nc2ccc(C(=O)c3ccco3)cc2C1=Cc1cc(Cl)c(O)c(Cl)c1 [GW406108X] have Percent Control under 90%?
**Result** true (1)

**Query** Quick check: does Cl.O=C(Nc1ccc(Oc2ccc3[nH]c(NC(=O)c4ccco4)nc3c2)cc1)Nc1cc(C(F)(F)F)ccc1F [GW683134A] have Percent Control under 90%?
**Result** true (1)

# credit: paper PMC7826789
